Measured EC50 by item
tested on: Hepatitis C virus; experiment: Antiviral activity against Hepatitis C virus genotype 2a JFH1 infected in human Huh7.5 cells assessed as decrease in viral RNA replication after 3 days by hRLuc reporter gene assay; type: functional, organism-based, Hepacivirus hominis; details: JFH-1, Huh-7, 72 h

Example entries and their recorded answers appear below.
[
  {
    "COMPOUND": "COc1ccc2c(O[C@@H]3C[C@H]4C(=O)N[C@@]5(C(=O)O)C[C@@H]5/C=C\\CCCCC[C@H](NC(=O)OC(C)(C)C)C(=O)N4C3)cc(-c3ccccn3)nc2c1",
    "MEASUREMENT": "0.74 µM"
  },
  {
    "COMPOUND": "O=C(O)c1ccc2c(c1)nc(-c1ccc(OCc3cc(C(=O)N4CCC(O)CC4)ccc3-c3ccc(Cl)cc3)cc1F)n2C1CCCCC1",
    "MEASUREMENT": "6.9 µM"
  }
]

Exam item: EC50 for "CC(C)C#Cc1cc(N(C(=O)[C@H]2CC[C@H](C)CC2)C(C)C)c(C(=O)O)s1" ?
Marked response: 6.1 µM

Exam item: EC50 for "NC(=O)COc1ccc2c(c1)S(=O)(=O)N=C(c1c(O)c3ccccc3n(NC3CCC3)c1=O)N2" ?
Marked response: > 32 µM

Exam item: EC50 for CNC(=O)c1c(-c2ccc(F)cc2)oc2cc(N(CCO)S(C)(=O)=O)c(C3CC3)cc12 [NESBUVIR] ?
Marked response: 0.13 µM
